Numbers sourced from PubChem BioAssay AID330.

tested on: P388 leukemia ip, CD2F1 mice, survival T/C; assay: NCI In Vivo Anticancer Drug Screen. Data for tumor model P388 Leukemia (intraperitoneal) in CD2F1 (CDF1) mice; settings: endpoint: median survival time; dose: 200.0 mg/kg/injection; schedule: Q01DX005 (ip); vehicle: Klucel (hydroxypropylcellulose) (HPC); higher = longer survival
Toxic doses and inconclusive results are not listed.
Below, each entry is listed with its recorded T/C.

INSERT INTO results (chemical_string, assay_value) VALUES
  ('CC(=O)NS(=O)(=O)c1ccc(NN=Nc2ccccc2Cl)cc1', '97 % of control'),
  ('COc1ccc2oc3cc4c(c(O)c3c(=O)c2c1CC=C(C)C)C=CC(C)(C)O4', '87 % of control'),
  ('COc1ccc2c(c1)CN(Cc1c(Cl)cccc1Cl)CO2', '89 % of control'),
  ('Cc1nc(Nc2ccc(F)cc2)c2c(C)c(Cc3ccccc3)[nH]c2n1', '94 % of control'),
  ('Nc1ccc(O)c2c1C(=O)c1c(O)ccc(N)c1C2=O', '87 % of control');

We now examine a further compound.
Tested on P388 leukemia ip, CD2F1 mice, survival T/C: O=C(Nc1ccc2[nH]c3ccccc3c2c1)c1ccccc1Cl . Observed T/C: 90 % of control

----------
tested on: P388 leukemia ip, CD2F1 mice, survival T/C; test: NCI In Vivo Anticancer Drug Screen. Data for tumor model P388 Leukemia (intraperitoneal) in CD2F1 (CDF1) mice; conditions: endpoint: median survival time; dose: 50.0 mg/kg/injection; schedule: Q04DX003 (ip); vehicle: saline with Tween-80
Inconclusive results and toxic doses are left out. The calls were made as follows: active = survival T/C of 150% or more; inactive = T/C below 125% in these data.
Bench note: report the call from active, inactive

Query: For CSc1ncnc2c1ncn2C1OC(CO)C(O)OC1O (centres undefined) , what call appears in the results of this test?
Reply: inactive

Query: Outcome? C=CCCn1nnc(-c2ccccc2)n1
Reply: inactive

Query: Could you kindly confirm the outcome this assay logged for CN(C)P(=S)(N(C)C)N1CCOCC1 ?
Reply: inactive

----------
system: P388 leukemia ip, CD2F1 mice, survival T/C; experiment: NCI In Vivo Anticancer Drug Screen. Data for tumor model P388 Leukemia (intraperitoneal) in CD2F1 (CDF1) mice; settings: endpoint: median survival time; dose: 25.0 mg/kg/injection; schedule: Q01DX005 (ip); vehicle: saline with Tween-80; higher = longer survival
Inconclusive results and toxic doses are left out.
Item-by-item account of T/C

INSERT INTO assay_data (compound, assay_value) VALUES
  ('CC1CN(Cc2cc(C(C)(C)c3cc(Cl)c(O)c(CN4CC(C)OC(C)C4)c3)cc(Cl)c2O)CC(C)O1 (stereo not drawn)', '101 % of control'),
  ('CSc1nc(COC(=O)NC(C)C)c(COC(=O)NC(C)C)n1Cc1ccccc1', '101 % of control'),
  ('N#CCC(=O)N/N=C(\CC1(O)C(=O)Nc2c(Cl)cc(Cl)cc21)c1cccc2ccccc12 (stereo not drawn)', '89 % of control'),
  ('CCCCCCCCCCCCCCCCCCCCCCCCC(O)C(=O)O (stereo not drawn) (tested in a mixture with another compound)', '93 % of control'),
  ('COc1cc(C2c3cc4c(cc3OC(C)(O)C2C)OCO4)cc(OC)c1OC (stereo not drawn)', '107 % of control');

Bench note, P388 leukemia ip, CD2F1 mice, survival T/C: Cc1ccc(C2(c3ccccc3)OC3OC=CC32)cc1 (stereo not drawn) , T/C reads 97 % of control

Measured on P388 leukemia ip, CD2F1 mice, survival T/C, c1c[nH]c(C23CC4CC(CC(C4)C2)C3)n1 has a documented T/C of 100 % of control

Bench note, P388 leukemia ip, CD2F1 mice, survival T/C: entry CSC(=S)n1nc(C)c(N=Nc2cc(Cl)ccc2Cl)c1C , its T/C = 95 % of control

----------
The compounds listed here are annotated with their T/C.
test system: P388 leukemia ip, CD2F1 mice, survival T/C; assay: NCI In Vivo Anticancer Drug Screen. Data for tumor model P388 Leukemia (intraperitoneal) in CD2F1 (CDF1) mice; conditions: endpoint: median survival time; dose: 100.0 mg/kg/injection; schedule: Q01DX001 (ip); vehicle: saline; higher = longer survival
Inconclusive results and toxic doses are left out.

Known T/C results, listed for orientation:
INSERT INTO assay_data (compound, assay_value) VALUES
  ('O=C1OC(c2ccccc2)(c2ccccc2)c2cc3c(cc21)C(c1ccccc1)(c1ccccc1)OC3=O', '93 % of control'),
  ('O=C1OCCC1C(=O)c1ccccc1 (configuration not stated)', '112 % of control'),
  ('Cn1c(=O)c2nc(-c3ccccc3)cnc2n(C)c1=O', '99 % of control'),
  ('N#CCCCCCCCCCCCC1C=CCC1 (configuration not stated)', '100 % of control'),
  ('CSC1=NNC(C)(C)C(N)=N1', '98 % of control');

Tested on P388 leukemia ip, CD2F1 mice, survival T/C, the item Cc1nc2c(=O)nc3n(c2nc1C)CCS3 showed T/C equal to 104 % of control

# T/C measured on P388 leukemia ip, CD2F1 mice, survival T/C for item CCOC(=O)C(=C/C=C/N(C)C)C(=O)OCC = 100 % of control

----------
Tested on: P388 leukemia ip, CD2F1 mice, survival T/C
Assay: NCI In Vivo Anticancer Drug Screen. Data for tumor model P388 Leukemia (intraperitoneal) in CD2F1 (CDF1) mice
Conditions: endpoint: median survival time; dose: 12.5 mg/kg/injection; schedule: Q01DX005 (ip); vehicle: Klucel (hydroxypropylcellulose) (HPC); higher = longer survival
Method: The antitumor activity of compounds was measured in mice bearing transplantable tumors. Survival or tumor size were measured and the results are expressed as the measurement made in the treated group (T) divided by the measurement made in the vehicle treated control group (C). The tumor model used in this assay is P388 Leukemia (intraperitoneal) in CD2F1 (CDF1) mice
Inconclusive results and toxic doses are left out.
quantity name: T/C

For this molecule ( O=S(=O)(Cc1cccs1)c1ncc(Br)cn1 ), measured T/C is 106 % of control

Lab note: measured T/C of O=C1C2CC34CCCN5CC1C1(c6ccccc6NC21CC3)C54 (stereo not given) was 103 % of control

T/C reported for this molecule CCCCCC1=CC2C(=O)NC(=O)NC12 (stereo not given) : 98 % of control

The recorded T/C for entry CN(C)C(=S)N/N=C/c1ccccn1 equals 115 % of control

// T/C lookup, molecule = Cc1cc2[n-]c1/C=c1\[n-]/c(c(CCC(=O)O)c1C)=C\c1[n-]c(c(C)c1CCC(=O)O)/C=c1/cc(C)/c([n-]1)=C/2.[Co] , result: 98 % of control

Please fill in: T/C reported for NC(=O)CC(NC(=O)OCC1c2ccccc2-c2ccccc21)C(=O)O (stereo not given) = 92 % of control

// CN(C)c1ncnc2c1ncn2CCn1cnc2c(N(C)C)ncnc21 : T/C value = 97 % of control

----------
system: P388 leukemia ip, CD2F1 mice, survival T/C; assay: NCI In Vivo Anticancer Drug Screen. Data for tumor model P388 Leukemia (intraperitoneal) in CD2F1 (CDF1) mice; conditions: endpoint: median survival time; dose: 12.5 mg/kg/injection; schedule: Q01DX009 (ip); vehicle: Klucel (hydroxypropylcellulose) (HPC); higher = longer survival
Inconclusive results and toxic doses are left out.
quantity name: T/C

# annotated cases, reported T/C shown
INSERT INTO assay_data (chemical_string, quantity_name, assay_value) VALUES
  ('C=C[C@]1(C)C[C@@H](OC(=O)CO)[C@@]2(C)[C@H](C)CC[C@]3(CCC(=O)[C@H]32)[C@@H](C)[C@@H]1O', 'T/C', '101 % of control'),
  ('CN(C)/N=C/c1c[nH]c2ccccc12', 'T/C', '103 % of control'),
  ('Cc1ccc2nc(NC(=O)OCc3ccccc3)sc2c1', 'T/C', '101 % of control'),
  ('O=[N+]([O-])c1cc(S(=O)(=O)c2ccc(F)c([N+](=O)[O-])c2)ccc1F', 'T/C', '114 % of control');

Given item COc1ccc2nc(N(C)C)cc(N(C)C)c2c1 , the value recorded as its T/C is 94 % of control

----------
Measured T/C, listed per entry.
system: P388 leukemia ip, CD2F1 mice, survival T/C; assay: NCI In Vivo Anticancer Drug Screen. Data for tumor model P388 Leukemia (intraperitoneal) in CD2F1 (CDF1) mice; settings: endpoint: median survival time; dose: 120.0 mg/kg/injection; schedule: Q01DX005 (ip); vehicle: saline; higher = longer survival
Inconclusive results and toxic doses are left out.

INSERT INTO assay_data (molecule, assay_value) VALUES
  ('C=CCN(CC=C)C1CCOC(OC)C1O (stereo unspecified)', '119 % of control [middle of 4 runs]'),
  ('C=CC(C(=C)C(=O)OC)c1ccccc1 (stereo unspecified)', '109 % of control'),
  ('C=CCCNC(=S)S', '107 % of control'),
  ('CCC(=O)Nc1c(O)c(Br)c(NC(=O)CC)c(O)c1Br', '100 % of control'),
  ('CCOC(=O)C(NC(C)=O)(C(=O)OCC)C1CCCCC1=O (stereo unspecified)', '96 % of control');

T/C value, target or system P388 leukemia ip, CD2F1 mice, survival T/C, for COC(=O)CCC(C(C)=O)C(=O)OC (stereo unspecified) : 110 % of control

Bench note, P388 leukemia ip, CD2F1 mice, survival T/C: Nc1ncnc2c1ncn2CC(O)CN(CCO)CCO (stereo unspecified) (tested in a mixture with another compound) , T/C reads 95 % of control

Field T/C (system: P388 leukemia ip, CD2F1 mice, survival T/C) for entry CN(C)CCC(=O)c1ccc2c(c1)OCO2 = 92 % of control
